Overview of recorded koff for various binders
- system name: T1, human IL6R (human, UniProt P08887 20-358, limits assumed)
- T1 construct: Antigen of the Biacore experiments
- T1 sequence (looked up): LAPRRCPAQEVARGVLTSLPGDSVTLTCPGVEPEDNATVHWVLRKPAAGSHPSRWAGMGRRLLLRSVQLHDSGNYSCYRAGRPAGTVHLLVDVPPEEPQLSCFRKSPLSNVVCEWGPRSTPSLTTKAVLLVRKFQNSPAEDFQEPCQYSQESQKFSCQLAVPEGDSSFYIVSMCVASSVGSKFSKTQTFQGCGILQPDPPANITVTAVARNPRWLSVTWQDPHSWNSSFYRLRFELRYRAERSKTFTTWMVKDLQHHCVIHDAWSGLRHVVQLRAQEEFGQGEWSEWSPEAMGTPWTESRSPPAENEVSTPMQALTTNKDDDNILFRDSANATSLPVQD
- method: SPR (Biacore), periplasmic extract
- Protocol: The oligos were dissolved in H₂O and subsequently pooled at a final concentration of 0.4 uM for each oligo. 5 and 1 ul of this mixture was used for assembly PCR in a 50 ul reaction volume. Full-length product was purified using the Qiagen PCR purification kit. […] Periplasmic extracts were prepared and without further purification analyzed on Biacore for their ability to bind human IL6R.

| binder | units of measure | koff |
| --- | --- | --- |
| 32C9PMP2_C6 (VHH, name in Kabat numbering, Humanized 32C9 variant) VHH: EVQLVESGGGLVQAGGSLRLSCAASGFTFSDYDIGWVRQAPGKGREWVSGISSSDGNTYYADSVKGRFTISSDNAKNTLYLQMNSLRPEDTAVYYCAAEPPDSSWYLDGSPEFFKYWGQGTQVTVSS | s⁻¹ | 0.00426 |
| P32C9PMP2_E12 (VHH, name in Kabat numbering, Humanized 32C9 variant) VHH: EVQLVESGGGLVQAGGSLRLSCAASGFTFDDYDIGWFRQAPGKGREGVSGISSSDGNTYYADSVKGRFTISRDNAKNTVYLQMNSLRPEDTAVYYCAAEPPDSSWYLDGSPEFFKYWGQGTLVTVSS | s⁻¹ | 0.000247 |
| 32C9PMP1_F8 (VHH, name in Kabat numbering, Humanized 32C9 variant) VHH: EVQLVESGGGLVQAGGSLRLSCAASGFTFSDYDIGWFRQAPGKEREWVSGISSSDGNTYYADSVKGRFTISSDNAKNTLYLQMNSLKAEDTAVYYCAAEPPDSSWYLDGSPEFFKYWGQGTLVTVSS | s⁻¹ | 0.00189 |
| 32C9PMP2_B12 (VHH, name in Kabat numbering, Humanized 32C9 variant) VHH: EVQLVESGGGLVQPGGSLRLSCAASGFTFSDYDIGWFRQAPGKEREWVSGISSSDGNTYYADSVKGRFTISSDNAKNTVYLQMNSLKAEDTAVYYCAAEPPDSSWYLDGSPEFFKYWGQGTQVTVSS | s⁻¹ | 0.00564 |
